Reference source: patent US20140057915A1

# pIC50 values compiled below
Biological target: GSK3α (Homo sapiens)
Sequence (P49840 whole entry): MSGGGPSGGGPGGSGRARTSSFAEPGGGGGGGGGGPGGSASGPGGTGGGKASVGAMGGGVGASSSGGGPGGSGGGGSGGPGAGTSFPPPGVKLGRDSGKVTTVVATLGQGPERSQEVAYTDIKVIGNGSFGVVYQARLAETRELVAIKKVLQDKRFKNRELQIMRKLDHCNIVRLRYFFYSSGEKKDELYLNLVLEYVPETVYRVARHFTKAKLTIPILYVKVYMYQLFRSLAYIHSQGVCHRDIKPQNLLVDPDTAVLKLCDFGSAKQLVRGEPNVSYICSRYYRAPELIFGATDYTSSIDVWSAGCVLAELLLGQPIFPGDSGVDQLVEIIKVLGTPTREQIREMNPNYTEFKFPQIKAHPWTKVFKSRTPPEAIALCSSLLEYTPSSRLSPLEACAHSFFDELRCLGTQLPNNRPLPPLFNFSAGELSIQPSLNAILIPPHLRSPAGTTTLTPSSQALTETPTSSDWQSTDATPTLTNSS
Assay: GSK 3α enzyme inhibition (FRET), Method 1
Format: biochemical
Settings: Table 4a1
pIC50: −log10 of the molar value.

Summary: COc1ccc(-n2nc(C(C)(C)C)cc2NC(=O)Nc2ccc(Oc3ccnc(Nc4cc(OC)cc(C(=O)NCCN5CCOCC5)c4)n3)c3ccccc23)cc1 , GSK3α (Homo sapiens), pIC50 = 6.66

Summary: COc1cc(Nc2cc(Oc3ccc(NC(=O)Nc4cc(C(C)(C)C)nn4-c4ccc(C)cc4)c4ccccc34)ncn2)cc(C(=O)NCCN2CCOCC2)c1 , GSK3α (Homo sapiens), pIC50 = < 4.89

Summary: COc1ccc(C(=O)NCCN(C)C)cc1Nc1nccc(Oc2ccc(NC(=O)Nc3cc(C(C)C)nn3-c3ccc(C)cc3)c3ccccc23)n1 , GSK3α (Homo sapiens), pIC50 = < 4.85
